Target: catalytic kinase (JH1) domain of human JAK2 (Homo sapiens)
Construct: Catalytic activities of recombinant JAK2, JAK3 and TYK2 kinase domain
Sequence (O60674 849-1124 limits assumed): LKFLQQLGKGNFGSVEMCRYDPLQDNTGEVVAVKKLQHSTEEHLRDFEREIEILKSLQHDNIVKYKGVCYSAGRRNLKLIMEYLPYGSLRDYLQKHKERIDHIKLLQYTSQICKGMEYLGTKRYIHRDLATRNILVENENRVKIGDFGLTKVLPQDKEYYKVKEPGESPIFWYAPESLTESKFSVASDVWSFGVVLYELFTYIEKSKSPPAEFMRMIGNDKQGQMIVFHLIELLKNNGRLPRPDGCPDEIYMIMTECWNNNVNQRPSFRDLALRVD
Test: ADP-Glo kinase assay, JAK2 kinase domain
Format: biochemical
pIC50: −log10 of the molar value.
pIC50 of 7 or higher: satisfied. Under 7: not satisfied.

Take a look at these entries with their results.
Cn1cc(-c2nc3c(N4CC5CCC(C4)N5C4COC4)ccnc3[nH]2)cn1 ... not satisfied
Cn1cc(-c2cc3c(N4CC5CCC(C4)N5[C@H]4C[C@@H](C#N)C4(C)C)ccnn3c2)cn1 (single isomer, unassigned) ... satisfied
Cn1cc(-c2cc3c(N4CC5CCC(C4)N5[C@@H]4C[C@H](C#N)C4(C)C)ccnn3c2)cn1 (single isomer, unassigned) ... not satisfied

QUERY: Given Cn1cc(-c2cc3c(N4CC5CCC(C4)N5[C@H]4C[C@H](S(C)(=O)=O)C4)ccnn3c2)cn1 , state whether its pIC50 is at least 7.
RESULT: not satisfied

QUERY: Given COc1cc(-c2cc3c(N4CC5CCC(C4)N5[C@H]4C[C@H](C#N)C4)ccnc3[nH]2)ccn1 , state whether its pIC50 is at least 7.
RESULT: satisfied

QUERY: Given Cc1cc(-c2cc3c(N4CC5CCC(C4)N5[C@H]4C[C@@H](C#N)C4)ccnn3c2)on1 , state whether its pIC50 is at least 7.
RESULT: satisfied

QUERY: Given COc1cc(-c2cc3c(N4CC5CCC(C4)N5[C@H]4C[C@@H](C#N)C4)ccnc3[nH]2)ccn1 , state whether its pIC50 is at least 7.
RESULT: not satisfied

QUERY: Given Cn1cc(-c2cc3c(N4CC5CCC(C4)N5C4CCC4)ccnn3c2)cn1 , state whether its pIC50 is at least 7.
RESULT: not satisfied

----------
Listed compounds paired with reported IC50
Target: catalytic kinase (JH1) domain of human TYK2 (Homo sapiens, UniProt P29597)
Construct: recombinantly generated catalytic kinase (also known as JH1) domain of human JAK1, JAK2, JAK3 and TYK2
Sequence (P29597 897-1176 limits assumed): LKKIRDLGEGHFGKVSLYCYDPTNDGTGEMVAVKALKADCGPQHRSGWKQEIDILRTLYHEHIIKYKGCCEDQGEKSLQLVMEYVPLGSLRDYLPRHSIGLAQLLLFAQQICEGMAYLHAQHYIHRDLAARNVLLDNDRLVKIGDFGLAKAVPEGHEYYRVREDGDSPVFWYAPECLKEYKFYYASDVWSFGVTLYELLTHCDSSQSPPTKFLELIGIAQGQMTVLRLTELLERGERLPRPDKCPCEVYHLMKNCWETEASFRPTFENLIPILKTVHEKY
Assay: ADP-Glo kinase assay, TYK2 kinase domain
Type: biochemical
Settings: 2 nM recombinant TYK2 kinase domain, 50 μM JAK3-974 peptide, 10 μM ATP, 100 minutes; read-out: TYK2 biochem IC50 (nM) Mean
Numeric answer only, unit nM assumed.

So for Cn1cc(-c2cc3c(N4CC5CCC(C4)N5C4CC(O)C4)ccnn3c2)cn1 (stereo not shown) [Example 25] , the logged IC50 turned out to be 435

So for Cn1cc(-c2cc3c(N4CC5CCC(C4)N5C4CC(O)(C(F)(F)F)C4)ccnn3c2)cn1 (stereo not shown) [Example 22] , the logged IC50 turned out to be 305

So for CO[C@H]1C[C@H](N2C3CCC2CN(c2ccnc4[nH]c(-c5cnn(C)c5)nc24)C3)C1 [Example 5] , the logged IC50 turned out to be 145

So for Cn1cc(-c2cc3c(N4CC5CCC(C4)N5[C@H]4C[C@](C)(C#N)C4)ccnn3c2)cn1 [Example 34] , the logged IC50 turned out to be 23

So for Cn1cc(-c2nc3c(N4CC5CCC(C4)N5[C@H]4C[C@H](C#N)C4)ccnc3[nH]2)cn1 [Example 3] , the logged IC50 turned out to be 44

So for COC[C@]1(C#N)C[C@H](N2C3CCC2CN(c2ccnn4cc(-c5cnn(C)c5)cc24)C3)C1 [Example 42] , the logged IC50 turned out to be 100

So for Cc1cc(-c2cc3c(N4CC5CCC(C4)N5C4CC(C#N)C4)ccnn3c2)cnn1 (stereo not shown) [Example 57] , the logged IC50 turned out to be 13

So for N#C[C@H]1C[C@@H](N2C3CCC2CN(c2ccnn4cc(-c5cnn(C(F)F)c5)cc24)C3)C1 [Example 60] , the logged IC50 turned out to be 2.38

So for COc1cc(-c2cc3c(N4CC5CCC(C4)N5C4CC(C#N)C4)ccnn3c2)cnn1 (stereo not shown) [Example 54] , the logged IC50 turned out to be 72

So for Cn1cc(-c2cc3c(N4CC5CCC(C4)N5[C@H]4C[C@H](O)C4)ccnn3c2)cn1 [Example 31] , the logged IC50 turned out to be 205
